B1: tRNA (parent)
chain: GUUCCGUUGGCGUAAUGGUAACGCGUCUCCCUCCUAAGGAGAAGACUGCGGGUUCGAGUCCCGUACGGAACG

# Variants of: B1
# Protocol notes: yeast fitness relative to wild type (ratio to wild type); higher = fitter; tRNA-Arg(CCU), competitive growth, 37 C, YPD
Variants at the floor of the assay were thinned out.
Observed property: yeast fitness

Mutation label: U3C G10C C27U G68C
Observed property: yeast fitness
Qual: ≤
Experimental value: 0.5
--
Mutation label: U2A A40U
Observed property: yeast fitness
Qual: =
Experimental value: 0.796
--
Mutation label: G38A G58A
Observed property: yeast fitness
Qual: =
Experimental value: 1.06
--
Mutation label: U3C A40U A45U G52A
Observed property: yeast fitness
Qual: ≤
Experimental value: 0.5
--
Mutation label: C5U C22U C30G C55U
Observed property: yeast fitness
Qual: ≤
Experimental value: 0.5
--
Mutation label: U3A C31G
Observed property: yeast fitness
Qual: =
Experimental value: 0.845
--
Mutation label: A37C A42C C55U
Observed property: yeast fitness
Qual: =
Experimental value: 0.597
--
Mutation label: U7A G12A U64A
Observed property: yeast fitness
Qual: ≤
Experimental value: 0.5
--
Mutation label: C29U C30A U59G A69C
Observed property: yeast fitness
Qual: ≤
Experimental value: 0.5
--
Mutation label: C4U U35C
Observed property: yeast fitness
Qual: =
Experimental value: 0.715
--
Mutation label: A20U U59G
Observed property: yeast fitness
Qual: =
Experimental value: 0.728
--
Mutation label: U2C C5G C11G C29U A36U G50C U54G
Observed property: yeast fitness
Qual: =
Experimental value: 0.628
--
Mutation label: U2C C30G C49A
Observed property: yeast fitness
Qual: ≤
Experimental value: 0.5
--
Mutation label: C4A G68C
Observed property: yeast fitness
Qual: =
Experimental value: 0.808
--
Mutation label: C4A C60U
Observed property: yeast fitness
Qual: =
Experimental value: 0.825
--
Mutation label: A36C A40G G58C C60A
Observed property: yeast fitness
Qual: =
Experimental value: 0.537
--
Mutation label: A21G C31G C33G
Observed property: yeast fitness
Qual: ≤
Experimental value: 0.5
--
Mutation label: G9A C11A A20U G23A G51A
Observed property: yeast fitness
Qual: ≤
Experimental value: 0.5
--
Mutation label: U19A C27U A65U
Observed property: yeast fitness
Qual: =
Experimental value: 0.717
--
Mutation label: A36G G51A
Observed property: yeast fitness
Qual: =
Experimental value: 0.744
--
Mutation label: A14G G50U G67C
Observed property: yeast fitness
Qual: ≤
Experimental value: 0.5
--
Mutation label: C24U G58A
Observed property: yeast fitness
Qual: =
Experimental value: 0.988
--
Mutation label: C27G U28A C30G C31U C60A A70C
Observed property: yeast fitness
Qual: ≤
Experimental value: 0.5
--
Mutation label: U13A U28C U32A
Observed property: yeast fitness
Qual: =
Experimental value: 0.698
--
Mutation label: C33A A36C G51A
Observed property: yeast fitness
Qual: =
Experimental value: 0.721
--
Mutation label: A14C C30U A43G
Observed property: yeast fitness
Qual: ≤
Experimental value: 0.5
--
Mutation label: C22U A42C A57C
Observed property: yeast fitness
Qual: ≤
Experimental value: 0.5
--
Mutation label: U2C A20U A40U
Observed property: yeast fitness
Qual: =
Experimental value: 0.52
--
Mutation label: C11U U13C C24A A43C G50C
Observed property: yeast fitness
Qual: ≤
Experimental value: 0.5
--
Mutation label: C5U C46U G50C C61U
Observed property: yeast fitness
Qual: ≤
Experimental value: 0.5
--
Mutation label: U2C A21C G38A
Observed property: yeast fitness
Qual: =
Experimental value: 0.594
--
Mutation label: A15C G17A G38C C62U
Observed property: yeast fitness
Qual: ≤
Experimental value: 0.5
--
Mutation label: C27A G39C A57U A70U
Observed property: yeast fitness
Qual: ≤
Experimental value: 0.5
--
Mutation label: A14G C22U A70C
Observed property: yeast fitness
Qual: ≤
Experimental value: 0.5
--
Mutation label: U32C C46U G50A G56C C62A C66U
Observed property: yeast fitness
Qual: ≤
Experimental value: 0.5
--
Mutation label: C22A A65U
Observed property: yeast fitness
Qual: =
Experimental value: 0.849
--
Mutation label: C11G A20G A43U U47A A65U G67C
Observed property: yeast fitness
Qual: ≤
Experimental value: 0.5
--
Mutation label: U2G G25C C29U C33U A40G G52A U59C A65U
Observed property: yeast fitness
Qual: =
Experimental value: 0.581
--
Mutation label: A14U A42U C49U C61U C66U
Observed property: yeast fitness
Qual: ≤
Experimental value: 0.5
--
Mutation label: C4G A40G C55U
Observed property: yeast fitness
Qual: ≤
Experimental value: 0.5
--
Mutation label: C31U A40G G48C A57U U59A A69C
Observed property: yeast fitness
Qual: ≤
Experimental value: 0.5
--
Mutation label: C24U C33U C61A A69U
Observed property: yeast fitness
Qual: ≤
Experimental value: 0.5
--
Mutation label: U2A C4U A57U
Observed property: yeast fitness
Qual: ≤
Experimental value: 0.5
--
Mutation label: A14U A15G C34G C61U A70C
Observed property: yeast fitness
Qual: ≤
Experimental value: 0.5
--
Mutation label: G10A C27G U28G C34U C46G
Observed property: yeast fitness
Qual: =
Experimental value: 0.576
--
Mutation label: C33A U35C C46U C49U G52C C61U C66U
Observed property: yeast fitness
Qual: ≤
Experimental value: 0.5
